Source: ChEMBL document CHEMBL4888484

Catalogue of pIC50 readings, one per entry.
# Tested on: Plasmodium falciparum
# Assay protocol: Hit confirmation in dose-response curve in NF54 pLDH assay, at 72h
# Type: functional, organism-based
# Design: timepoint 72 hour
# Particulars: NF54, Erythrocyte
pIC50: −log10 of the molar value.
Measurement label: pIC50

                              smiles_record  observed_value
0  Cc1cc(=O)[nH]c(-n2nc(C3CC3)cc2NC(=O)C(C)(C)Oc2ccc(Cl)cc2)n1          < 5.00
1  COc1cccc(N2C(=O)C[C@]3(CC3(c3ccccc3)c3ccccc3)C2=O)c1          < 5.00
2  COc1ccc(OC)c(NC(=O)CN2CCc3[nH]c4ccc(F)cc4c(=O)c3C2)c1          < 5.00

###

Let's look at some compounds and their measured pIC50.
# System: Plasmodium falciparum
# Assay protocol: Hit confirmation in dose-response curve in NF54 nanoGlo assay, at 72h
# Assay type: functional, organism-based, Erythrocyte
# Design: timepoint 72 hour
# Particulars: Plasmodium falciparum, NF54, Erythrocyte, 72 h
pIC50: −log10 of the molar value.
Measurement label: pIC50

                                   compound  observed_value
0  CCc1cc(N2C[C@@H]3NC(=O)CN(C)Cc4ccc(OC)c(c4)Oc4cccc(c4)CO[C@H]3C2)nc(N(C)C)n1            5.69
1  COC1CCCC1NC(=O)Nc1ncc(Br)cc1C (stereo not drawn)            5.70
2  C[N+]12CCCCC1C(OC(=O)C1(c3ccccc3)CCCC1)CCC2 (stereo not drawn)            5.69

###

# System: Plasmodium falciparum
# Assay protocol: Hit confirmation in dose-response curve in NF54 pLDH assay, at 72h
# Format: functional, organism-based
# Design: timepoint 72 hour
# Particulars: NF54, Erythrocyte
Please assign Condition not met whenever IC50 is at or above 3 µM, and Condition met whenever it is below.

>>> df
                                    molecule          tested_system                cat
 0  COc1ccc(-c2cc3n(n2)C[C@@](C)(C(=O)NCc2ccccc2)N(Cc2ccc4c(c2)OCO4)C3=O)cc1  Plasmodium falciparum  Condition not met
 1  CN(C(=O)C(C)(C)Nc1ncc(C(F)(F)F)cc1Cl)c1ccc(Cl)cc1  Plasmodium falciparum  Condition not met
 2     S=c1cc(-c2ccccc2)n(Cc2ccco2)c2c1CCCC2  Plasmodium falciparum  Condition not met
 3       CCCCCn1c(NCc2cc(Cl)ccc2O)nc2ccccc21  Plasmodium falciparum  Condition not met
 4  CN(C)CC(O)COc1ccc(S(=O)(=O)c2ccc(OCC(O)CN(C)C)c(Cl)c2)cc1Cl (stereo unspecified)  Plasmodium falciparum      Condition met
 5  O=C(Nc1cnc2ccccc2c1)c1ccccc1C(=O)c1ccc(F)cc1  Plasmodium falciparum      Condition met
 6  O=c1nc2n(nc1-c1ccccc1)C1(CCC1)Nc1ccccc1-2  Plasmodium falciparum      Condition met
 7  COc1ccc(CN2CC[C@@H]3C(=O)NCCCCCCN(Cc4ccncc4)[C@@H]3C2)cc1Cn1ccnc1  Plasmodium falciparum      Condition met
 8  CCOc1ccc2ccccc2c1C(=O)Nc1cc(C)nn1-c1nc2c(c(=O)[nH]1)CCC2  Plasmodium falciparum      Condition met
 9  O=S(=O)(NC12CCCC1CNC2)c1onc(C2CC2)c1Cl (stereo unspecified)  Plasmodium falciparum      Condition met
10  C=Cn1cc[n+](CC(=O)c2ccc(-c3ccccc3)cc2)c1  Plasmodium falciparum  Condition not met
11     CC[n+]1c(/C=C/N(C)c2ccccc2)oc2ccccc21  Plasmodium falciparum      Condition met
12  CCc1ccc(C(=O)NCCCC2CCCC2O)cc1S(=O)(=O)N1CCOCC1 (stereo unspecified)  Plasmodium falciparum  Condition not met
13  Cc1ccc(OCCNc2cc([C@H]3C[C@H](N)C3)nc(C3CC3)n2)cc1C  Plasmodium falciparum  Condition not met
14   Cc1nnc(CNC(=O)Nc2cccc3c4c(oc23)CCCC4)o1  Plasmodium falciparum      Condition met
15  Cc1nn(-c2ccccn2)c(O)c1C(c1ccccc1)c1c(C)nn(-c2ccccn2)c1O  Plasmodium falciparum  Condition not met
16   CCCN1CCC(NCc2ccc(-c3cccc(Cl)c3Cl)o2)CC1  Plasmodium falciparum  Condition not met
17        c1ccc2c[n+](Cc3ccc4ccccc4n3)ccc2c1  Plasmodium falciparum      Condition met
18  Cc1ccc(S(=O)(=O)Nc2c(S(=O)(=O)c3ccccc3)c3nc4ccccc4nc3n2CCc2ccccc2)cc1  Plasmodium falciparum  Condition not met
19         CN(Cc1ccsc1)C(=O)c1cc2ccccc2[nH]1  Plasmodium falciparum  Condition not met
20  Cc1ccc(S(=O)(=O)c2c(NS(=O)(=O)c3ccccc3)n(CCc3ccccc3)c3nc4ccccc4nc23)cc1  Plasmodium falciparum  Condition not met
21      Cc1ccc(N(Cc2cccs2)C(=O)c2cccs2)cc1Cl  Plasmodium falciparum  Condition not met
22  COc1ccccc1Cn1cnc2c1c(=O)n(C1CCCCC1)c(=O)n2-c1ccccc1Cl  Plasmodium falciparum  Condition not met
23  CCOC(=O)C1CCC(CN(Cc2ccc(OC)cc2)S(=O)(=O)c2cc(C(=O)Nc3ccc(OCC)cc3)ccc2F)CC1 (stereo unspecified)  Plasmodium falciparum  Condition not met
24  CCN(CC)c1ccc(C(=O)Nc2ccc3nc(N4CCCC4)cc(C)c3c2)cc1  Plasmodium falciparum  Condition not met
25   COc1nc(-c2cccc(C(=O)NCC3CCOCC3)c2)ncc1F  Plasmodium falciparum      Condition met
26   N#Cc1nc2c(C#N)c(N)n(CCc3ccccc3)c2nc1C#N  Plasmodium falciparum      Condition met
27        Oc1ccc(-c2nnc(-c3ccc(O)cc3)nn2)cc1  Plasmodium falciparum  Condition not met
28  CC(C)[C@@H]1CC[C@H](C)C[C@H]1OC(=O)Cn1cc(-c2ccc(Cl)cc2)[n+]2c1CCC2  Plasmodium falciparum      Condition met
29  Cc1ccc(OCC(=O)Nc2cc(C)nn2-c2nc3c(cnn3-c3ccc(C)c(C)c3)c(=O)[nH]2)cc1  Plasmodium falciparum  Condition not met
30  CC1CCN(Cc2ccc(CNCc3c[nH]nc3-c3ccc(F)cc3)cc2)CC1  Plasmodium falciparum  Condition not met
